experimentalReadout: melting point

# count of solved cases: 5
Requested field: melting point. Item: COc1nc(-c2cccc(Cl)c2)c2cc(C(=O)N(C)OC)ccc2n1
118 °C

Requested field: melting point. Item: O=C(O)[C@H](Cc1ccc(OCc2ccccc2)cc1)NS(=O)(=O)c1ccc(N2CCC(c3ccccc3)CC2)cc1
75 to 78 °C

Requested field: melting point. Item: O=C(CC(=O)C(F)(F)F)Nc1cc(-c2ccncc2)n[nH]1
364 to 366 °C

Requested field: melting point. Item: CC(C)(C)n1nc(Cc2ccccc2)c(C#N)c1N
106 to 110 °C

Requested field: melting point. Item: c1c(N2CCCC2)nc(NC23CC4CC(CC(C4)C2)C3)nc1N1CCNCC1
160 to 164 °C

Quick batch: melting point for everything below.
1. CCNc1nc(C)c(-c2ccnc(Nc3ccc(N4CCN(C(C)=O)CC4)cc3)n2)s1
2. CC(C)(C)C(NC(=O)c1ccc(Cl)cc1)Nc1c(Nc2cccnc2F)c(=O)c1=O (stereo not given)
3. CC=CN1C(=O)CN(c2ccccc2)C1=S
4. CCC1(CC)C(=O)c2cc(OCC(=O)O)c(C)c(C)c2C1=O
5. CN(C)CCCOc1ccc(/C=C/C(=O)O)cc1

208 to 209 °C
231 to 234 °C
74 °C
134 to 136 °C
191 to 193 °C
